Values were extracted from ChEMBL document CHEMBL1131128.

Target: Cathepsin K (Homo sapiens) (UniProt P43235)
Sequence (P43235 whole entry): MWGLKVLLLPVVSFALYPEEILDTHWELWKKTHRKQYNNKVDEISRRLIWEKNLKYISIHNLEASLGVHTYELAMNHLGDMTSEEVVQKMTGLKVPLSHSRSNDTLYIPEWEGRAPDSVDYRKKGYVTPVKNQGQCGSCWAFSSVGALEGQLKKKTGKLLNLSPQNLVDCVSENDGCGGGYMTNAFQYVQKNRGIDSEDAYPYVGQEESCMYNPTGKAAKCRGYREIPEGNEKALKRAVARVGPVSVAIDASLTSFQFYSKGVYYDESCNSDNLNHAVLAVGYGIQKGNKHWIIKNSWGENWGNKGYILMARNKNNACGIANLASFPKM
Test: Second order rate constant was measured for the inhibition of Cathepsin K
RESULT_TYPE: second-order inhibition rate constant (kobs/[I]) (M⁻¹ s⁻¹)

Example entries begin here.
CC[C@H](NC(=O)OCc1ccccc1)C(=O)NNC(=O)NNC(=O)[C@H](CC(C)C)NC(=O)OCc1ccccc1; 490000
CC(C)C[C@H](NC(=O)OCc1ccccc1)C(=O)NNC(=O)NNC(=O)c1ccccc1OCc1ccccc1; 318000
CCC[C@H](NC(=O)OCc1ccccc1)C(=O)NNC(=O)NNC(=O)[C@H](CC(C)C)NC(=O)OCc1ccccc1; 4e+06
CC(C)C[C@H](NC(=O)OCc1ccccc1)C(=O)NNC(=O)NNC(=O)c1ccccc1; 38000

(a) CC(C)C[C@H](NC(=O)OCc1ccccc1)C(=O)NNC(=O)NNC(=O)[C@H](CC(C)C)NC(=O)OCc1ccccc1
(b) CC(C)C[C@H](NC(=O)OCc1ccccc1)C(=O)NNC(=O)NNC(=O)c1ccc(OCc2ccccc2)cc1
(c) CC(C)C[C@H](NC(=O)OCc1ccccc1)C(=O)NNC(=O)NNC(=O)c1cccc(OCc2ccccc2)c1
(d) CC(C)C[C@H](NC(=O)OCc1ccccc1)C(=O)NNC(=O)NNC(=O)[C@H](C)NC(=O)OCc1ccccc1
input: Rank the 4 compounds: largest second-order inhibition rate constant (kobs/[I]) first, smallest last. Write the labels, ordered according to the request.
output: a, d, c, b
